Data origin, for the record: the nanobody polyreactivity screen of Harvey et al. (2022)

- Measurement protocol: yeast display, Sf9 membrane polyspecificity reagent, FACS + sequencing; frameworks hold sequencing errors
Metric: polyreactivity (PSR sort gate)

Sample answers from the record:
QVQLVESGGGLVQAGGSLRLSCAASGRIFVSNTMGWYRQAPGKERELVAVIRTDSGSTYYADSVKGRFTISRDNAKNTVYLQMNSLKPEDTAVYYCAKVAYFASYRTGFYYWGQGTQVTVSS ... high polyreactivity
QDLLVDSGGGLVQAGGSLRVSCAASGYTRFYAMGWYRQAPGKERELVAAISSSGGTTYYADSVKGRFTISRDNAKNNVYLQMNSLKPEDTAVYYCAKFLSYSRTLYDYWGQGTQVTVSS ... high polyreactivity
QVQLVESGGGLVQAGGSLRLSCAASVRIFVYNTMGWYRQAPGKERELVAAINYSGGSTYYADSVKGRFTISRDNAKNTVYLQMNSLKPEDTAVYYCAVKLRSRAGTSYGYWGQGTQVTVSS ... high polyreactivity
QVQLVESGGGLVQAGGSLRLSCAASGSTFGPYVMRWYRQAPGKERELVAGISSSGGSTYYADSVKGRFTISRDNAKNTVYLQMNSLKPEDTAVYYCAAVWTTGWIDSYTAWYSYEYWGQGTQVTVSS ... low polyreactivity

GET /values?readout=polyreactivity (PSR sort gate)&item= QVLLQESGGGLVQAGGSLRLSCASSGTISTDIRMGWYRLAPGKEREFVASIDGCSTTYYADSVKGRFSISRDNAKNTVYLQMNSLKPEDTSMYYCAAREATEFYLYYWGQGTQVTVSS
low polyreactivity

====

- Measurement protocol: yeast display, Sf9 membrane polyspecificity reagent, FACS + sequencing; frameworks hold sequencing errors
Metric: polyreactivity (PSR sort gate)

Sample answers from the record:
QVQLVESGGGLVQAGGSLRLSCAASGSTFSGNAMGWYRQAPGKERELVAAISSGGDTYYADSVKGRFTNSRDNAKNTVYLQMNSLKPEDTAVYYCNARSTWRHRRDQVDFDYWGQGTQVTVSS ... low polyreactivity
QVQLVESGGGLVQAGGSLRLSCAASGFTFYSNAMGWYRQAPGKERELVAAISFSGTRTYYADSVKGRFTISRDNAKNTVYLQMNSLKPEDTAVYYCNAVAYNYPRTYDYWGQGTQVTVSS ... high polyreactivity
QVQLVESGGGLVQAGGSLRLSCAASGSTFRRYAMGWYRQAPGKERELVAAITGSGGRTYYADSVKGRFTISRDNAKNTVYLQMNSLKPEDTAVYYCAKDSYTRPRGYDYWGQGTQVTVSS ... high polyreactivity
QVQLVESGGGLVQAGGSLRLSCAASGRIFFTNAMGWYRQAPGKERELGAAIRFSGGRTYYADSVKGRFTISGDNAKNTVYLQMNSLKPEDTAVYYCAADPPRTRYRNARFDYWGQGTQVTVSS ... high polyreactivity
QVQLVESGGGLVQAGGSLRLSCASSGRTSLNYAMGWYRQAPGKDRELVAAITSGGGGTYYADSVKGRFTISRDNAKNTVYLQMYRLKPEVTALYYCGAKFPARRKLSKVGFDYWGQGTQVSVSS ... high polyreactivity

GET /values?readout=polyreactivity (PSR sort gate)&item= QVQLVESGGGLVQAGGSLRLSCAASGGNFYYYVMGWYRQAPGKERELVAAITWSGGSTSYADSVKGRFTISRDNAKNTVYLQMNSLKPEDTAVYYCNADSTTQDYDYWGQGTQVSVSS
low polyreactivity

GET /values?readout=polyreactivity (PSR sort gate)&item= QVQHVESGGGLVQAGGSLRLSCAASGRTFYRNAMGWSRQAPGKELELVAAITRSGGSTYYADSVKGRFTTSRDNAKNTVYLQMNSLQPEDTAVYYCARRLYPYRPTPYDYWGQGTQVTVSS
low polyreactivity

GET /values?readout=polyreactivity (PSR sort gate)&item= QVQLVESGGGLVQAGRSLRLSCAASGFIFRWYAMGWYRQAPGKERELVAGLTSGDNTYYADSVKGRFTISRDNAKNTVYLQMNSLKPEDTAVSYCAADGWLWSFTGDGWWFDYWGQGTQVTVSS
low polyreactivity

GET /values?readout=polyreactivity (PSR sort gate)&item= QVQLVESGGGLVQAGGSLRLSCAASGSIFFYNAMGWYRQAPGKERELVAAISRGGNTNYADSVKGRFTISRDNANNTVYLQMNSLKPEDTAVYYCNAESLSGAHGYWGQGTQVTVSS
low polyreactivity

GET /values?readout=polyreactivity (PSR sort gate)&item= QVQLVESGGVLVQAGGSLRLSCAASGRIFGDNAMGWYRHAPGKERELDADIDSGGRTNYADSVKVRFTISLDNAKNTVYLQMNSLKPEDTAVYYCGRDDIAYLVEYDYWGQGTQVTVSS
low polyreactivity

GET /values?readout=polyreactivity (PSR sort gate)&item= QVQLVESGGGLVQAGGSLRLSCAASGSIFYGYAMGWYRQAPRKERELVAAISSSGGSTYYADSVKGRFTISRDTAKNTVYLQMNSLKPEDTAVSYCARSRSYWGIVYGRYDYWGQGTQVTVSS
high polyreactivity
